Biological target: alkaline phosphatase (Bos taurus, UniProt P19111)
Sequence (P19111 20-506 limits assumed): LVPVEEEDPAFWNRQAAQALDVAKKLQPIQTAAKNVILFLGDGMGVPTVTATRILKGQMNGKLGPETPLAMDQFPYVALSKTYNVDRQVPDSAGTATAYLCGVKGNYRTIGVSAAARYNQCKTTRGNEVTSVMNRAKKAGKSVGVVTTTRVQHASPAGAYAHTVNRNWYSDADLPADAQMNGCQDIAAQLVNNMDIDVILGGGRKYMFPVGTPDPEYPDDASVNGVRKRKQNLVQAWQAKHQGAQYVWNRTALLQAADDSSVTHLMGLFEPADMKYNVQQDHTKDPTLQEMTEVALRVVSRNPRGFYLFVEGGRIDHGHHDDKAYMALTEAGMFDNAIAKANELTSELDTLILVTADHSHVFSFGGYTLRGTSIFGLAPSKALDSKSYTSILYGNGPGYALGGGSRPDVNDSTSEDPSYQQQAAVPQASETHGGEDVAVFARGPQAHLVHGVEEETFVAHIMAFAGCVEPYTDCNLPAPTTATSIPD
Assay: Chemiluminescent signal and signal:background with enhancer polymers (Example XVII)
Type: biochemical
Conditions: polymer TMQ; 5 min
Description: Four sets of three tubes each, each tube in each set containing 450 μl of a 0.4 mM aqueous solution of one of the four 1,2-dioxetanes being compared in 0.1M diethanolamine containing 1 mM magnesium chloride, 0.02% sodium azide and 0.1% of the enhancer polymer, pH 10.0 (substrate buffer) were prepared and the background signal from each tube measured using a Berthold LB 952T luminometer (Berthold Instruments; Wildbad, Federal Republic of Germany). […]
S/N values, listed per item
# output: bare number, no unit

# annotated cases, reported S/N shown
molecule="COC1(c2cccc(OP(=O)(O)O)c2)OOC12C1CC3CC2CC(Cl)(C3)C1 (stereo not shown)" result_value=165.0
molecule="COC1(c2cccc(OP(=O)(O)O)c2)OOC12C1CC3CC2CC(O)(C3)C1 (single isomer, unassigned) [A-OH-AMPPD]" result_value=113.6
molecule="COC1(c2cccc(OP(=O)(O)O)c2)OOC12C1CC3CC(C1)CC2C3 (stereo not shown) [AMPPD, reference compound]" result_value=65.8

Kindly consider the entry below.
Prompt line: Please supply the value of reported S/N for the item COC1(c2cccc(OP(=O)(O)O)c2)OOC12C1CC3CC2CC(O)(C3)C1 (single isomer, unassigned) [B-OH-AMPPD]
Response line: 49.8

====

Target: alkaline phosphatase (Bos taurus, UniProt P19111)
Test: Chemiluminescent signal and signal:background with enhancer polymers (Example XVII)
Type: biochemical
Conditions: polymer DAA TMQ; 20 min
Each entry below carries its reported SIGNAL.
Answer with a number only.

compound="COC1(c2cccc(OP(=O)(O)O)c2)OOC12C1CC3CC(C1)CC2C3 (stereo not shown) [AMPPD, reference compound]" result_value=14957.3
compound="COC1(c2cccc(OP(=O)(O)O)c2)OOC12C1CC3CC2CC(O)(C3)C1 (single isomer, unassigned) [A-OH-AMPPD]" result_value=6309.4
compound="COC1(c2cccc(OP(=O)(O)O)c2)OOC12C1CC3CC2CC(O)(C3)C1 (single isomer, unassigned) [B-OH-AMPPD]" result_value=6670.3

Prompt line: Look up alkaline phosphatase (Bos taurus, UniProt P19111) data: SIGNAL of COC1(c2cccc(OP(=O)(O)O)c2)OOC12C1CC3CC2CC(Cl)(C3)C1 (stereo not shown) , then report it.
Response line: 13204.2

====

Measured S/N, listed per entry.
Biological target: alkaline phosphatase (Bos taurus)
Test: Chemiluminescent signal and signal:background with enhancer polymers (Example XVII)
Type: biochemical
Details: polymer S/TMQ(1:2); 20 min
A bare number is all that is needed in reply.

Below are worked cases with known answers.
molecule="COC1(c2cccc(OP(=O)(O)O)c2)OOC12C1CC3CC2CC(Cl)(C3)C1 (stereo not shown)" target_desc="alkaline phosphatase (Bos taurus)" result_value=100.2
molecule="COC1(c2cccc(OP(=O)(O)O)c2)OOC12C1CC3CC(C1)CC2C3 (stereo not shown) [AMPPD, reference compound]" target_desc="alkaline phosphatase (Bos taurus)" result_value=58.9
molecule="COC1(c2cccc(OP(=O)(O)O)c2)OOC12C1CC3CC2CC(O)(C3)C1 (single isomer, unassigned) [B-OH-AMPPD]" target_desc="alkaline phosphatase (Bos taurus)" result_value=35.7

Continue with the next molecule.
Prompt line: Report value: S/N, system: alkaline phosphatase (Bos taurus), molecule: COC1(c2cccc(OP(=O)(O)O)c2)OOC12C1CC3CC2CC(O)(C3)C1 (single isomer, unassigned) [A-OH-AMPPD]
Response line: 158.6

====

Molecular target: alkaline phosphatase (Bos taurus)
Assay: Chemiluminescent signal and signal:background with enhancer polymers (Example XVII)
Type: biochemical
Details: polymer TMQ; time 0 (background, before enzyme)
Experimental: Four sets of three tubes each, each tube in each set containing 450 μl of a 0.4 mM aqueous solution of one of the four 1,2-dioxetanes being compared in 0.1M diethanolamine containing 1 mM magnesium chloride, 0.02% sodium azide and 0.1% of the enhancer polymer, pH 10.0 (substrate buffer) were prepared and the background signal from each tube measured using a Berthold LB 952T luminometer (Berthold Instruments; Wildbad, Federal Republic of Germany). […]
# SIGNAL values compiled below

compound="COC1(c2cccc(OP(=O)(O)O)c2)OOC12C1CC3CC(C1)CC2C3 (stereo not shown) [AMPPD, reference compound]" result_value=159.9
compound="COC1(c2cccc(OP(=O)(O)O)c2)OOC12C1CC3CC2CC(Cl)(C3)C1 (stereo not shown)" result_value=50.3
compound="COC1(c2cccc(OP(=O)(O)O)c2)OOC12C1CC3CC2CC(O)(C3)C1 (single isomer, unassigned) [B-OH-AMPPD]" result_value=125.7

Lab note: next compound to report on.
Prompt line: Give alkaline phosphatase (Bos taurus) SIGNAL for the following compound: COC1(c2cccc(OP(=O)(O)O)c2)OOC12C1CC3CC2CC(O)(C3)C1 (single isomer, unassigned) [A-OH-AMPPD]
Response line: 77.9

====

compounds and their reported SIGNAL
Target: UniProt:P19111
Test: Chemiluminescent signal and signal:background with enhancer polymers (Example XVII)
Format: biochemical
Conditions: polymer SAPPHIRE; 5 min
Respond with the number and no other words.

Use the examples below as a reference point.
compound="COC1(c2cccc(OP(=O)(O)O)c2)OOC12C1CC3CC(C1)CC2C3 (stereo not shown) [AMPPD, reference compound]" endpoint=SIGNAL result_value=38457.8
compound="COC1(c2cccc(OP(=O)(O)O)c2)OOC12C1CC3CC2CC(O)(C3)C1 (single isomer, unassigned) [B-OH-AMPPD]" endpoint=SIGNAL result_value=10908.4
compound="COC1(c2cccc(OP(=O)(O)O)c2)OOC12C1CC3CC2CC(Cl)(C3)C1 (stereo not shown)" endpoint=SIGNAL result_value=51584.5

Prompt line: For COC1(c2cccc(OP(=O)(O)O)c2)OOC12C1CC3CC2CC(O)(C3)C1 (single isomer, unassigned) [A-OH-AMPPD] , write its SIGNAL.
Response line: 21051.3

====

Target: alkaline phosphatase (Bos taurus, UniProt P19111)
Experiment: Chemiluminescent signal and signal:background with enhancer polymers (Example XVII)
Format: biochemical
Conditions: polymer TEQ; 20 min
Endpoint: SIGNAL
Give a plain numeric answer without units written out.

Check out these entries, answers already filled in.
compound="COC1(c2cccc(OP(=O)(O)O)c2)OOC12C1CC3CC2CC(O)(C3)C1 (single isomer, unassigned) [B-OH-AMPPD]" endpoint=SIGNAL result_value=11563.4
compound="COC1(c2cccc(OP(=O)(O)O)c2)OOC12C1CC3CC(C1)CC2C3 (stereo not shown) [AMPPD, reference compound]" endpoint=SIGNAL result_value=50020.0
compound="COC1(c2cccc(OP(=O)(O)O)c2)OOC12C1CC3CC2CC(O)(C3)C1 (single isomer, unassigned) [A-OH-AMPPD]" endpoint=SIGNAL result_value=1908.9

Now consider a different compound.
Prompt line: Return reported SIGNAL for target or system alkaline phosphatase (Bos taurus, UniProt P19111), item COC1(c2cccc(OP(=O)(O)O)c2)OOC12C1CC3CC2CC(Cl)(C3)C1 (stereo not shown) .
Response line: 34467.2

====

Molecular target: alkaline phosphatase (Bos taurus, UniProt P19111)
Experiment: Chemiluminescent signal and signal:background with enhancer polymers (Example XVII)
Assay type: biochemical
Conditions: polymer TMQ; 20 min
Endpoint: SIGNAL
// response body must contain only the number

Here is how some molecules turned out for SIGNAL.
molecule="COC1(c2cccc(OP(=O)(O)O)c2)OOC12C1CC3CC2CC(O)(C3)C1 (single isomer, unassigned) [A-OH-AMPPD]" endpoint=SIGNAL result_value=11658.3
molecule="COC1(c2cccc(OP(=O)(O)O)c2)OOC12C1CC3CC2CC(Cl)(C3)C1 (stereo not shown) [Cl-AMPPD]" endpoint=SIGNAL result_value=13640.5
molecule="COC1(c2cccc(OP(=O)(O)O)c2)OOC12C1CC3CC(C1)CC2C3 (stereo not shown) [AMPPD, reference compound]" endpoint=SIGNAL result_value=22558.3

Now for the molecule whose SIGNAL we want.
Prompt line: Return SIGNAL for the following molecule: COC1(c2cccc(OP(=O)(O)O)c2)OOC12C1CC3CC2CC(O)(C3)C1 (single isomer, unassigned) [B-OH-AMPPD]
Response line: 8857.8

====

Target: alkaline phosphatase (Bos taurus, UniProt P19111)
Experiment: Alkaline phosphatase detection limits, LabSystems Luminoskan (Example XXV)
Assay type: biochemical
Conditions: SAPPHIRE, 5 MINUTE INCUBATION
Procedure: The detection means for alkaline phosphatase with different chemiluminescent 1,2-dioxetane substrates were determined as follows: Duplicates of serial dilutions (1 to 3) of alkaline phosphates were incubated at room temperature with 0.4 mM dioxetane in 0.1 M diethanolamine, 1 mM MgCl2, pH 10.0, containing 1 mg/ml of either of the polymeric enhancers Enhancer 1 or Enhancer 2, in […]. […]
Endpoint: Alkaline phosphatase detection limit (at 2× background)

Worked examples follow.
compound="COC1(c2cccc(OP(=O)(O)O)c2)OOC12C1CC3CC2CC(Cl)(C3)C1 (stereo not shown)" result_value="0.0014 pM"
compound="COC1(c2cccc(OP(=O)(O)O)c2)OOC12C1CC3CC(C1)CC2C3 (stereo not shown) [AMPPD, reference compound]" result_value="0.0038 pM"
compound="COC1(c2cccc(OP(=O)(O)O)c2)OOC12C1CC3CC2CC(O)(C3)C1 (single isomer, unassigned)" result_value="0.0031 pM"

Read the next record carefully.
Prompt line: Give the measured Alkaline phosphatase detection limit (at 2× background) for COC1(c2cccc(OP(=O)(O)O)c2)OOC12C1CC3CC2CC(Br)(C3)C1 (stereo not shown)
Response line: 0.0027 pM

Data origin: patent US5326882A
